Parameter absolute recovery: see the listing below.
Experiment: absolute recovery over mixed-bed multilayer solid-phase extraction; higher = better recovery
Conditions: surface water; enrichment method: SPE
Report as a plain number; the unit % is understood.

Recorded absolute recovery, per entry:
CC1(C)C(=O)Oc2ccc(OS(C)(=O)=O)cc21 [Ethofumesat-2-keto] : 50.8
CCOC(=O)C1(c2ccccc2)CCC=CC1[NH+](C)C (stereo not given) [Tilidine] : 78.8
CCNC(=O)NC(=O)C(C#N)=NOC [Cymoxanil] : 83.5
COc1c(C)c2c(c(O)c1CC=C(C)CCC(=O)[O-])C(=O)OC2 [Mycophenolic-Acid] : 97.1

Next item in the queue.
# input molecule: CCC(CO)NCC[NH2+]C(CC)CO (stereo not given) [Ethambutol] ; wanted: its absolute recovery
64.3

###

Test: absolute recovery over mixed-bed multilayer solid-phase extraction; higher = better recovery
Conditions: nanopure water; enrichment method: SPE
Property label: absolute recovery (%)
Report as a plain number; the unit % is understood.

CC[N+]([O-])(CC)CC(=O)Nc1c(C)cccc1C [Lidocaine-N-Oxide] : 90.4

# input compound: CC(=O)N(C)c1ccccc1 [N-Methylacetanilid] ; wanted: its absolute recovery
84.7

Same question, Cn1c(=O)c2c(ncn2C)n(C)c1=O [Coffein] this time
96.4

Same question, CCCCc1oc2ccc(NS(C)(=O)=O)cc2c1C(=O)c1ccc(OCCC[NH+](CCCC)CCCC)cc1 [Dronedaron] this time
71.7

Same question, CCOC(=O)NCCOc1ccc(Oc2ccccc2)cc1 [Fenoxycarb] this time
105

###

Experiment: absolute recovery over mixed-bed multilayer solid-phase extraction; higher = better recovery
Conditions: surface water; enrichment method: SPE
Would you mind labelling by absolute recovery? At or over 90% is 1, under is 0.

Please check the record COC(=O)C1C2CC3c4[nH]c5cc(OC)ccc5c4CC[NH+]3CC2CC(OC(=O)c2cc(OC)c(OC)c(OC)c2)C1OC (stereo not given) [Reserpin] and state if its absolute recovery is at or above 90%.
0

Same question, CN1C(=O)CCC1c1cccnc1 (stereo not given) [Cotinine] this time
1

Same question, O=C(NC(=O)c1c(F)cccc1F)Nc1ccc(Cl)cc1 [Diflubenzuron] this time
1

Same question, CCCCCCCCn1sc(Cl)c(Cl)c1=O [4-5-Dichloro-2-n-octyl-isothiazol-3(2H)-on (=DCOIT)] this time
0

Same question, C[NH2+]C1(c2ccccc2Cl)CCCCC1=O (stereo not given) [Ketamin] this time
0

Same question, CCC1OC(=O)C(C)C(OC2CC(C)(OC)C(O)C(C)O2)C(C)C(OC2OC(C)CC([NH2+]C)C2O)C(C)(O)CC(C)C[NH+](C)C(C)C(O)C1(C)O (stereo not given) [N-Desmethyl-Azithromycin] this time
1

Same question, CN1C(=O)CN=C(c2ccccc2)c2cc(Cl)ccc21 [Diazepam] this time
1

Same question, CSc1nnc(C(C)(C)C)c(=O)n1N [Metribuzin] this time
1

Same question, CC(C)(Oc1ccc(C(=O)c2ccc(Cl)cc2)cc1)C(=O)[O-] [Fenofibric-acid] this time
0

Same question, CCn1cc(C(=O)[O-])c(=O)c2cc(F)c(N3CC[NH2+]CC3)cc21 [Norfloxacin] this time
0

Same question, CCS(=O)(=O)c1cccnc1S(=O)(=O)[N-]C(=O)Nc1nc(OC)cc(OC)n1 [Rimsulfuron] this time
1

Same question, CC[NH+]1CCCC1CNC(=O)c1cc(S(N)(=O)=O)ccc1OC (stereo not given) [Sulpirid] this time
0

Same question, CC=CC(=O)N(CC)c1ccccc1C [Crotamiton] this time
0
